The measured values listed here are drawn from patent US20230338609A1.

Kindly supply the reported S. aureus (MIC) values for the records listed here.
system: Staphylococcus aureus, strain ATCC 25923; conditions: ATCC 25923
Give just the number in µg/mL; leave the unit off.

Exercise: What measured S. aureus (MIC) goes with CCCNC(=O)[C@H](CCCNC(=N)N)NC(=O)[C@H](Cc1c(C(C)(C)C)[nH]c2c(C(C)(C)C)cc(C(C)(C)C)cc12)NC(=O)[C@@H](N)CCCNC(=N)N ?
Key: 2

Exercise: Lookup CCCCNC(=O)[C@H](CCCNC(=N)N)NC(=O)[C@H](Cc1c(C(C)(C)C)[nH]c2c(C(C)(C)C)cc(C(C)(C)C)cc12)NC(=O)[C@@H](N)CCCNC(=N)N
Key: 2
